# test protocol: qHTS assay for small molecule antagonists of retinoid X receptor alpha signaling (AID 588546);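 note: cells stimulated with 9-cis-retinoic acid as agonist; % is set by controls: 0 for no effect and ±100 for the full control effect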
# condition info: HEK293T RXRa-UAS-bla, beta-lactamase ratio, antagonist mode; measured here: W530 green channel, cytotoxicity proxy
Inconclusive results are not listed.
Below: a set of entries, each annotated with reported max response.
Kindly answer with a numeric value in %, unit omitted.

Consider the reported max response for these compounds:
{"compound": "CN(c1c(Br)cc(Br)cc1Br)c1c([N+](=O)[O-])cc([N+](=O)[O-])cc1C(F)(F)F", "max response (%)": -24}
{"compound": "COC(=O)c1sccc1S(=O)(=O)NC(=O)Nc1nc(C)nc(OC)n1", "max response (%)": -1.17}
{"compound": "c1ccc2c(c1)oc1ccccc12", "max response (%)": -9.11}
{"compound": "CCOP(=O)(OCC)Oc1cc(C)nc(C(C)C)n1", "max response (%)": 13.6}
{"compound": "CCOP(=S)(NC(C)C)Oc1ccccc1C(=O)OC(C)C (configuration not stated)", "max response (%)": -9.07}
{"compound": "CC(C)=CC1C(C(=O)OCc2coc(Cc3ccccc3)c2)C1(C)C (configuration not stated)", "max response (%)": -14.2}

[Q] Given the entry CC(C)C(=O)OCC(C)(C)C(OC(=O)C(C)C)C(C)C (configuration not stated) , report its measured max response.
[A] -5.68

[Q] Given the entry CCCCNC(=O)OCC#CI , report its measured max response.
[A] 2.86

[Q] Given the entry c1cc(OCC2CO2)cc(OCC2CO2)c1 (configuration not stated) , report its measured max response.
[A] 6.7

[Q] Given the entry CCCCC(O)(Cn1cncn1)c1ccc(Cl)cc1Cl (configuration not stated) , report its measured max response.
[A] -3.36

[Q] Given the entry Cc1ccccc1C(=O)Nc1cccc(OC(C)C)c1 , report its measured max response.
[A] -1.03

[Q] Given the entry Cc1nc(N(C)C)nc(OC(=O)N(C)C)c1C , report its measured max response.
[A] -14.1

====

# test target: Cytochrome P450 1A2 (Homo sapiens) (UniProt P05177)
# Sequence (P05177 whole entry, looked up): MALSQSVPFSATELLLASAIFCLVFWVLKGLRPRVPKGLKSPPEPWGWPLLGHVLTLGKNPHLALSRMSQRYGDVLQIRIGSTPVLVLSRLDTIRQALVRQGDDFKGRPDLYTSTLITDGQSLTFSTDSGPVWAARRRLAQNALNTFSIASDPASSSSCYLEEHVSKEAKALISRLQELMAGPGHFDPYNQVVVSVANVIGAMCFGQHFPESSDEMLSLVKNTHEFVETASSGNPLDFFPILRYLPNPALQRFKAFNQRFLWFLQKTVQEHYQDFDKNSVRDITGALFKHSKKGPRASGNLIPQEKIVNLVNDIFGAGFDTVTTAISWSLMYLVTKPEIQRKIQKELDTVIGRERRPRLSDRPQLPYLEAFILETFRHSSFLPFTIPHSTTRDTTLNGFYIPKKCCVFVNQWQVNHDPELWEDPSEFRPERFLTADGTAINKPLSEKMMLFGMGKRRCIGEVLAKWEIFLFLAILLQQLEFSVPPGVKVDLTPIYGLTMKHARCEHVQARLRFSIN
# test protocol: p450-cyp1a2 (AID 410)
# condition info: recombinant CYP1A2, luciferin-ME demethylation, luminescence; series mostly up to 57 µM
Records with an inconclusive call do not appear. Active and inactive are the calls of the source. Calls come from the whole dose curve.
I would appreciate it if you answered using one of these outcomes: 1.0 (active), 0.0 (inactive)

Field: example entries. Status: answers known.
{"molecule": "CCN(CC)c1ncnc2c1ncn2[C@@H]1O[C@@H](COP(=O)(O)OP(=O)(O)C(Br)(Br)P(=O)(O)O)[C@H](O)[C@H]1O", "test target": "Cytochrome P450 1A2 (Homo sapiens) (UniProt P05177)", "group label": 1.0}
{"molecule": "C[C@@H](Cc1cccc(C(F)(F)F)c1)NCCCc1ccccc1", "test target": "Cytochrome P450 1A2 (Homo sapiens) (UniProt P05177)", "group label": 1.0}

[Q] # fetch the recorded call for C[C@H]1CC[C@]2(NC1)O[C@@H]1C[C@@H]3[C@@H]4CC=C5C[C@H](O)CC[C@@]5(C)[C@H]4CC[C@@]3(C)[C@H]1[C@@H]2C here
[A] 0.0

[Q] # fetch the recorded call for N[C@]1(C(=O)O)CC[C@@H](C(=O)O)C1 here
[A] 0.0

[Q] # fetch the recorded call for O=C(O)[C@@H]1C[C@H]1[C@@H](NP(=O)(c1ccccc1)c1ccccc1)c1ccccc1 here
[A] 0.0

[Q] # fetch the recorded call for CCCc1cc2c(n1CCO)C(C)C1CN(C(=O)c3ccccc3)C(C)(C(=O)OC)C21 (stereo not drawn) here
[A] 0.0

[Q] # fetch the recorded call for COc1ccc2[nH]c3c(c2c1)CCN=C3C here
[A] 1.0

[Q] # fetch the recorded call for CC(C)[C@H]1C(=O)N2CCC[C@@H]2[C@]2(O)O[C@@](NC(=O)[C@H]3C=C4c5cccc6[nH]cc(c56)C[C@H]4N(C)C3)(C(C)C)C(=O)N12 here
[A] 1.0

[Q] # fetch the recorded call for C[C@H](N[C@@H](C)CCc1ccccc1)[C@H](O)c1ccc(O)cc1 here
[A] 1.0

[Q] # fetch the recorded call for O=C(O)[C@H]1C[C@@H]1[C@H](NP(=O)(c1ccccc1)c1ccccc1)c1ccccc1 here
[A] 0.0

[Q] # fetch the recorded call for NC(N)=Nc1ccc2[nH]c3c(c2c1)C[C@]1(O)[C@@H]2Cc4ccc(O)c5c4[C@]1(CCN2CC1CC1)[C@H]3O5 here
[A] 0.0

[Q] # fetch the recorded call for CC[C@H](CO)NC(=O)[C@@H]1C=C2c3cccc4c3c(cn4C)C[C@@H]2N(C)C1 here
[A] 0.0

====

# Test system: CP262
# test protocol: qHTS profiling for inhibitors of Plasmodium falciparum proliferation (AID 504749); note: nearly all actives have a fitted effect of over 60% in size
# condition info: P. falciparum in erythrocytes, SYBR Green DNA, 72 h; series mostly up to 28.7 µM
Results filed as inconclusive are left out. Active and inactive are the calls of the source. Calls come from the whole dose curve; as a rule, active = well fitted inhibition curve with a large enough effect; inconclusive = small, poorly fitted or top-dose-only effect; inactive = flat fitted curve, though single readings scatter.
I would appreciate it if you answered using one of these outcomes: y for active, n for inactive

{"compound": "CN(C)[C@@H](Cc1ccccc1)c1ccccc1", "group label": "n"}
{"compound": "COC(=O)C1C(OC(=O)c2ccccc2)CC2CCC1N2C (stereo not drawn)", "group label": "n"}
{"compound": "OCC(O)[C@H]1O[C@@H]2O[C@H](C(Cl)(Cl)Cl)O[C@@H]2[C@H]1O (stereo partly drawn)", "group label": "n"}
{"compound": "C[C@]12C=CC(=O)C=C1CC[C@@H]1C2CC[C@]2(C)OC(=O)CCC12 (stereo partly drawn)", "group label": "n"}

# evaluate next
[Q] # fetch the recorded call for Nc1nc(O)c(-c2ccccc2)o1 here
[A] n

====

# Test system: CP297
# test protocol: qHTS profiling for inhibitors of Plasmodium falciparum proliferation (AID 504749); note: nearly all actives have a fitted effect of over 60% in size
# condition info: P. falciparum in erythrocytes, SYBR Green DNA, 72 h; series mostly up to 28.7 µM
Records with an inconclusive call do not appear. Activity calls are given as the source filed them. Calls follow the shape of the dose curve; as a rule, active = well fitted inhibition curve with a large enough effect; inconclusive = small, poorly fitted or top-dose-only effect; inactive = flat fitted curve, though single readings scatter.
I would appreciate it if you answered using one of these outcomes: active, inactive

Field: example entries. Status: answers known.
{"compound": "CC(=O)O[C@H]1C[C@H](O[C@H]2[C@@H](O)CC(O[C@H]3[C@@H](O)C[C@H](O[C@H]4CC[C@@]5(C)[C@H](CC[C@@H]6[C@@H]5CC[C@]5(C)[C@@H](C7=CC(=O)OC7)CC[C@]65O)C4)O[C@@H]3C)O[C@@H]2C)O[C@H](C)[C@H]1O[C@@H]1O[C@H](CO)[C@@H](O)[C@H](O)[C@H]1O (some centres undefined)", "group label": "inactive"}
{"compound": "CCC(=O)OC1(c2ccccc2)CCN(C)CC1C (centres undefined)", "group label": "active"}
{"compound": "C=C1Nc2ccccc2C(=O)N1c1ccccc1C", "group label": "inactive"}
{"compound": "CCCCCCC(=O)O[C@H]1CC[C@H]2[C@@H]3CCC4CC(=O)C=C(C)[C@]4(C)[C@H]3CC[C@]12C (some centres undefined)", "group label": "inactive"}
{"compound": "CC(Cc1ccccc1)N(C)C (centres undefined)", "group label": "inactive"}

[Q] # fetch the recorded call for CC(C)=CC1C(C(=O)OCc2coc(Cc3ccccc3)c2)C1(C)C (centres undefined) here
[A] inactive

[Q] # fetch the recorded call for NC(Cc1ccc(Oc2cc(I)c(O)c(I)c2)c(I)c1)C(=O)O (centres undefined) here
[A] inactive

[Q] # fetch the recorded call for CC(CO)NC(=O)C1C=C2c3cccc4[nH]cc(c34)CC2N(C)C1 (centres undefined) here
[A] inactive

[Q] # fetch the recorded call for CC(=O)Oc1ccc2c3c1OC1[C@@H](OC(C)=O)C=C[C@H]4[C@H](C2)N(C)CC[C@]314 (some centres undefined) here
[A] inactive

====

# test protocol: qHTS assay for small molecule agonists of the antioxidant response element (ARE) signaling pathway (AID 651741); for activation: % of control where 0% means no effect
# condition info: HepG2 ARE-bla reporter, beta-lactamase FRET ratio, 16 h; series mostly up to 96 µM
Results filed as inconclusive are left out. The source made the active and inactive calls. Calls follow the shape of the dose curve; as a rule, active = well fitted activation curve with a large enough effect in the signal ratio; inconclusive = small, poorly fitted or top-dose-only effect, or effect the other way, or a change in a side signal; inactive = flat fitted curve, though single readings scatter; the % refers to the signal ratio.
I would appreciate it if you answered using one of these outcomes: active, inactive

Field: example entries. Status: answers known.
{"compound": "CCC(C)c1cc([N+](=O)[O-])cc([N+](=O)[O-])c1O (stereo not given)", "group label": "active"}
{"compound": "Cc1nn(-c2cc(NS(C)(=O)=O)c(Cl)cc2Cl)c(=O)n1C(F)F", "group label": "inactive"}
{"compound": "COP(=O)(OC)Oc1ccc([N+](=O)[O-])cc1", "group label": "inactive"}
{"compound": "CC1(C(=O)Nc2ccc(O)c(Cl)c2Cl)CCCCC1", "group label": "active"}

[Q] # fetch the recorded call for [CH3][Hg][Cl] here
[A] active

[Q] # fetch the recorded call for O=C(O)CN(CCN(CC(=O)O)CC(=O)O)CC(=O)O here
[A] inactive

[Q] # fetch the recorded call for CCNc1nc(Cl)nc(NC(C)(C)C)n1 here
[A] inactive

[Q] # fetch the recorded call for CCNc1nc(NC(C)C)nc(OC)n1 here
[A] inactive

[Q] # fetch the recorded call for O=C1C2(Cl)C3(Cl)C4(Cl)C(Cl)(Cl)C5(Cl)C3(Cl)C1(Cl)C5(Cl)C24Cl (stereo not given) here
[A] active

[Q] # fetch the recorded call for CCCN(CC)CC1COC2(CCC(C(C)(C)C)CC2)O1 (stereo not given) here
[A] inactive

[Q] # fetch the recorded call for N#Cc1cc(Br)c(O)c(Br)c1 here
[A] active

[Q] # fetch the recorded call for CN/C(=N/[N+](=O)[O-])NCC1CCOC1 (stereo not given) here
[A] inactive

[Q] # fetch the recorded call for CCOP(=O)(OCC)SCSC(C)(C)C here
[A] inactive

[Q] # fetch the recorded call for COC[C@H](C)N(C(=O)CCl)c1c(C)csc1C here
[A] active

[Q] # fetch the recorded call for CCC/C(=N\OCC)C1=C(O)CC(CC(C)SCC)CC1=O (stereo not given) here
[A] inactive

[Q] # fetch the recorded call for O=C(O)[C@@H]1[C@H](C(=O)O)[C@@]2(Cl)C(Cl)=C(Cl)[C@]1(Cl)C2(Cl)Cl here
[A] inactive

[Q] # fetch the recorded call for O=C/C(Cl)=C(/Cl)C(=O)O here
[A] active

[Q] # fetch the recorded call for ClC1=C(Cl)[C@]2(Cl)[C@H]3[C@H]([C@@H]4C=C[C@H]3C4)[C@]1(Cl)C2(Cl)Cl here
[A] active

[Q] # fetch the recorded call for O=C(NC(=O)c1c(F)cccc1F)Nc1cc(Cl)c(OC(F)(F)C(F)C(F)(F)F)c(Cl)c1F (stereo not given) here
[A] active

[Q] # fetch the recorded call for CC(Oc1cccc(Cl)c1)C(=O)O (stereo not given) here
[A] inactive

[Q] # fetch the recorded call for ClC1=C(Cl)C(Cl)(Cl)C(Cl)=C1Cl here
[A] inactive
